This section presents binders with their documented pIC50 values.
# system tested: T1, Steap 1xCD3 TCE SEQ ID NO 373 + 374 + 375
# T1 construct: also called STEAP1×CD3e heterodimeric TCE; Ab-A1 Xmab2+1
# procedure text: SPR solution competition, peptide titrated into fixed TCE, free TCE read on peptide capture surface
Where no end group is shown, it is not given here. [ ]: non-standard residue; d: D form. pGlu = O=C1CC[C@@H](C(=O)O)N1
Interpret pIC50 as the negative base-10 log of the concentration measured in mol/L.

// worked examples, pIC50 included
>>> reported_result("[pGlu]DGSEELKGC (Position 1 is written E for pGlu) [pGlu-DGSEELKGC]")
7.78
>>> reported_result("[pGlu]DGVEELKGC (Position 1 is written E for pGlu) [pGlu-DGVEELKGC]")
7.58
>>> reported_result("[pGlu]DGNEELKGC (also called ID 14974) [pGlu-DGNEELKGC]")
7.87
>>> reported_result("[pGlu]DGTEELKGC (Position 1 is written E for pGlu) [pGlu-DGTEELKGC]")
7.22
>>> reported_result("[pGlu]DGEEELKGC [pGlu-DGEEELKGC]")
7.54

Q) Let me know recorded pIC50 for [pGlu]DGIEELKGC (Position 1 is written E for pGlu) [pGlu-DGIEELKGC] , thanks.
A) 7.94
